Assay name: qHTS for Inhibitors of human tyrosyl-DNA phosphodiesterase 1 (TDP1): qHTS in cells in presence of CPT; also: nearly all actives have a fitted effect of over 55% in size
Experimental parameters: chicken DT40 Tdp1-/-;hTDP1 cells + 20 nM CPT, ATP luminescence, 48 h; series mostly up to 46.2 µM
The campaign covered roughly 420,000 compounds. About 50,000 (12%) were called active. Another 26% or so got no clear call; they are omitted. This excerpt belongs to a sample that is enriched for actives.
Attribute measured: outcome

COc1ccc(NC(=O)CCCc2nnc3n(CCC(C)C)c(=O)c4sccc4n23)c(OC)c1 | inactive
CC(C)n1c(O)c(N=Nc2ccccn2)c2ccccc21 | inactive
COc1ccc(C)cc1NC(=O)CSc1nnc2ccc(-c3ccccn3)nn12 | inactive
O=C(/C=C/c1ccc(Cl)cc1)Nc1ccc(S(=O)(=O)Nc2ncccn2)cc1 | inactive

###

Assay name: qHTS for Inhibitors of human tyrosyl-DNA phosphodiesterase 1 (TDP1): qHTS in cells in presence of CPT; also: nearly all actives have a fitted effect of over 55% in size; also: potency is read from the fitted curve at half-maximal effect
Experimental parameters: chicken DT40 Tdp1-/-;hTDP1 cells + 20 nM CPT, ATP luminescence, 48 h; series mostly up to 46.2 µM
Among all 420,000 compounds or so, about 50,000 (12%) were called active. Not shown: some 26% with an inconclusive outcome. What follows is part of a selection rich in actives, with near analogues and random picks from the rest.
Attribute measured: Potency

COc1ccc(C(=O)C2CCCN(Cc3cccn3-c3ccccn3)C2)c(C)c1 (centres undefined) | 20.6 µM (active)
Cc1cc(Cl)ccc1C(=O)C1CCCN(C(=O)c2ccc3c(c2)OCO3)C1 (centres undefined) | 10.3 µM (active)
COc1ccc(CCNC(=O)COc2cc(C)cc3oc(=O)c(C)c(C)c23)cc1OC | inactive
CCOC(=O)c1[nH]ncc1CN1CCCC(C(=O)c2ccc(OC)cc2C)C1 (centres undefined) | inactive

###

Assay name: qHTS for Inhibitors of human tyrosyl-DNA phosphodiesterase 1 (TDP1): qHTS in cells in presence of CPT; also: nearly all actives have a fitted effect of over 55% in size
Experimental parameters: chicken DT40 Tdp1-/-;hTDP1 cells + 20 nM CPT, ATP luminescence, 48 h; series mostly up to 46.2 µM
Hit rate of the full screen: of about 420,000 compounds, about 50,000 (12%) were called active. Not shown: some 26% with an inconclusive outcome. The call rests on the fitted dose curve; in most records, active means well fitted inhibition curve with a large enough effect; inconclusive means small, poorly fitted or top-dose-only effect; inactive means flat fitted curve, though single readings scatter. For the sample, actives were picked, then their nearest neighbours and some compounds at random.
Give one outcome, nothing more. List: active, inactive

Recorded results for 3 compounds are shown here.
CN(C)C(=O)c1cccn(Cc2cccc(C(F)(F)F)c2)c1=O | inactive
COc1ccccc1C(=O)NC(=O)COC(=O)c1ccco1 | inactive
COc1ccccc1C(=O)Nn1cnnc1 | inactive

Please indicate how the test categorized `Cn1ccnc1-c1nnn(-c2ccc(F)cc2)n1` .
inactive

Please indicate how the test categorized `CCOc1cc(C)ccc1OCc1nnc(SCC(=O)Nc2cccc(C(=O)O)c2)n1-c1ccccc1` .
inactive

###

Each record here notes measured Potency.
Assay name: qHTS for Inhibitors of human tyrosyl-DNA phosphodiesterase 1 (TDP1): qHTS in cells in presence of CPT; also: nearly all actives have a fitted effect of over 55% in size; also: potency is read from the fitted curve at half-maximal effect
Experimental parameters: chicken DT40 Tdp1-/-;hTDP1 cells + 20 nM CPT, ATP luminescence, 48 h; series mostly up to 46.2 µM
Procedure: Human tyrosyl-DNA phosphodiesterase 1 (TDP1) is a novel repair gene, and we propose to use it as a new target for anticancer drug development. […] For the primary screen, Tdp1-/-;hTDP1 cells will be exposed to small molecules in the presence or absence of CPT, and their growth kinetics will be evaluated after 48 hours by measuring ATP activity. […] The hit compounds will then be evaluated in the presence or absence of CPT using Tdp1-/- cells. […]
In all, about 420,000 compounds went through this assay and about 50,000 (12%) were called active. Inconclusive results (about 26%) are left out. The list comes from a sample in which actives are over-represented; it also holds close analogues and randomly drawn compounds.

C=CCN(CC=C)S(=O)(=O)c1ccc(C(=O)Nc2nc3c(s2)CCc2ccccc2-3)cc1 | 16.4 µM (active)

Continue with the compound presented below.
Find the measured Potency of `C=CCN(CC=C)S(=O)(=O)c1ccc(C(=O)Nc2sc3c(c2C(N)=O)CCCCC3)cc1` and report it.
13 µM (active)

###

Assay name: qHTS for Inhibitors of human tyrosyl-DNA phosphodiesterase 1 (TDP1): qHTS in cells in presence of CPT; also: nearly all actives have a fitted effect of over 55% in size
Experimental parameters: chicken DT40 Tdp1-/-;hTDP1 cells + 20 nM CPT, ATP luminescence, 48 h; series mostly up to 46.2 µM
Screen size: about 420,000 compounds; about 50,000 (12%) were called active. Roughly 26% stayed inconclusive and do not appear here. Calls follow the shape of the dose curve; as a rule, active = well fitted inhibition curve with a large enough effect; inconclusive = small, poorly fitted or top-dose-only effect; inactive = flat fitted curve, though single readings scatter. The sample as a whole holds a higher share of actives than the screen did.
Give one outcome, nothing more. List: YES for active, NO for inactive

Recorded results for 8 compounds are shown here.
CN(Cc1ccccc1)C(=O)c1cn(C)c2ccc(S(=O)(=O)N3CCCCC3)cc2c1=O | NO
C/C(CCc1ccccc1)=N\NC(=O)c1ccc(CN2CCOCC2)cc1 | NO
CC(C)(C)n1nc2c(c1NC(=O)c1cc3ccccc3o1)CSC2 | NO
COc1ccc(C)cc1NC(=O)CCCN1C(=O)NC(C)(C)C1=O | NO
COC[C@@H]1NS(=O)(=O)c2ccc(Br)cc2O[C@H]1c1ccccc1 | NO
C/C(Cc1ccccc1)=N\NC(=O)CNC(=O)c1ccccc1Cl | NO
N#C/C=C/N1CCN(Cc2ccc3c(c2)OCO3)CC1 | NO
COc1cc(OC)cc(-c2nnc(N(C)C(=O)c3ccncc3)s2)c1 | NO

Please indicate how the test categorized `COc1ccc(Cn2c(=O)c3oc4ccccc4c3n(CC(=O)Nc3ccc(F)cc3F)c2=O)cc1` .
NO

Please indicate how the test categorized `CC(=O)Nc1cccc(OCC(=O)/C=C2\N(C)c3ccccc3C2(C)C)c1` .
YES

Please indicate how the test categorized `Cc1cnc(CNc2nc(-c3cccnc3)nc3ccccc23)cn1` .
NO

###

Assay name: qHTS for Inhibitors of human tyrosyl-DNA phosphodiesterase 1 (TDP1): qHTS in cells in presence of CPT; also: nearly all actives have a fitted effect of over 55% in size
Experimental parameters: chicken DT40 Tdp1-/-;hTDP1 cells + 20 nM CPT, ATP luminescence, 48 h; series mostly up to 46.2 µM
Out of some 420,000 compounds screened, about 50,000 (12%) were called active. About 26% were inconclusive and are not listed. The call rests on the fitted dose curve; in most records, active means well fitted inhibition curve with a large enough effect; inconclusive means small, poorly fitted or top-dose-only effect; inactive means flat fitted curve, though single readings scatter. This is one part of a sample in which actives are shown more often than they occur.
Give one outcome, nothing more. List: active, inactive

O=C1CCC[C@@H]2C[C@@]3(C[C@@H]4CCN1[C@H]24)Nc1ccccc1NC3=NCc1ccccc1 | inactive
CCCCNC(=O)N(O)C1N(/N=C/c2ccccc2O)C(=S)SC1(C)C (configuration not stated) | inactive
COc1ccccc1-n1ccnc1SCC(=O)NC(C)(C)C | inactive
O=C(CSc1nnc(CNC(=O)c2ccc(F)cc2)o1)Nc1ccc2c(c1)OCO2 | inactive
CC(C)=CC1C(C(=O)O)C1(C)C (configuration not stated) | inactive
Cc1cc2c(cc1C)NC1(C[C@H]3CCC(=O)N4CC[C@@H](C1)[C@@H]34)C(=NC(C)(C)CC(C)(C)C)N2 (some centres not stated) | active

Here is another molecule to look at.
Please indicate how the test categorized `O=C(NCc1ccc2c(c1)OCO2)c1cc(F)c(F)cc1Cl` .
inactive

###

Assay name: qHTS for Inhibitors of human tyrosyl-DNA phosphodiesterase 1 (TDP1): qHTS in cells in presence of CPT; also: nearly all actives have a fitted effect of over 55% in size
Experimental parameters: chicken DT40 Tdp1-/-;hTDP1 cells + 20 nM CPT, ATP luminescence, 48 h; series mostly up to 46.2 µM
Screen size: about 420,000 compounds; about 50,000 (12%) were called active. Inconclusive results (about 26%) are left out. Calls follow the shape of the dose curve; as a rule, active = well fitted inhibition curve with a large enough effect; inconclusive = small, poorly fitted or top-dose-only effect; inactive = flat fitted curve, though single readings scatter. The full list was thinned out, with actives kept by preference.
Give one outcome, nothing more. List: 1 for active, -1 for inactive

O=C(OCc1nc2ccccc2[nH]1)C1CCCCC1 | -1
c1ccc(CNc2ncncc2-c2cccnc2)cc1 | -1
Cc1cc2nn(-c3ccc(Cl)cc3)nc2cc1NC(=O)C(C)C | -1
Nc1ccc2nn(-c3ccc(Cl)cc3)nc2c1 | 1

Please indicate how the test categorized `CSc1nc2ccccc2cc1/C=C(\C#N)c1ccc(Cl)cc1Cl` .
-1

Please indicate how the test categorized `C=CCOc1ccc(/C=C/C(=O)OCC(=O)NC2CCCCCC2)cc1` .
-1

Please indicate how the test categorized CCCCNC(=O)C1CCCNC1=O (stereo unspecified) .
-1

Please indicate how the test categorized `Cc1cccc(NS(=O)(=O)c2ccc([N+](=O)[O-])cc2)n1` .
-1

Please indicate how the test categorized `CN(c1ccccn1)c1ncnc2[nH]ncc12` .
-1

Please indicate how the test categorized `CCCc1nc(N)nc2c1C(=O)CC(C)(C)C2` .
-1

Please indicate how the test categorized CC1(C(=O)NS(=O)(=O)c2cccc(OC(F)F)c2)CCN1C(=O)C1CC1 (stereo unspecified) .
-1

###

Assay name: qHTS for Inhibitors of human tyrosyl-DNA phosphodiesterase 1 (TDP1): qHTS in cells in presence of CPT; also: nearly all actives have a fitted effect of over 55% in size
Experimental parameters: chicken DT40 Tdp1-/-;hTDP1 cells + 20 nM CPT, ATP luminescence, 48 h; series mostly up to 46.2 µM
About 50,000 (12%) of roughly 420,000 compounds were called active. About 26% were inconclusive and are not listed. The call rests on the fitted dose curve; in most records, active means well fitted inhibition curve with a large enough effect; inconclusive means small, poorly fitted or top-dose-only effect; inactive means flat fitted curve, though single readings scatter. For the sample, actives were picked, then their nearest neighbours and some compounds at random.
Give one outcome, nothing more. List: yes (active), no (inactive)

Recorded results for 3 molecules are shown here.
CCN(CC)c1ccc(/C=N/NC(=O)CNC(=O)c2cccs2)cc1 | no
COc1ccccc1C(=O)Nc1ccnn1C1CCN(Cc2cnn(C)c2)CC1 | no
CCOc1ccc(C(=O)Nc2cccc(-c3ccc4nncn4n3)c2)cc1 | yes

Please indicate how the test categorized `CCN(CC)CCCNC(=O)CCc1ccccc1` .
no

Please indicate how the test categorized `CCC(=O)Nc1ccc(C(=O)Nc2cccc(OC)c2)cc1` .
no

Please indicate how the test categorized `CSc1cccc(NC(=O)CSc2ccccc2)c1` .
no

These data points were gathered from PubChem BioAssay AID686979.
